inhibition values, listed per item
assay: inhibitors of E-selectin induction by TNFa, primary screen, imaging, HUVEC, immunofluorescence, MLSMR starter and 10KST1 sets (AID 487); settings: HUVEC TNFalpha-induced E-selectin immunofluorescence imaging, at 2 µM; stronger effect = higher value;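 note: signal is fraction of cell area covered by stained E-selectin grains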
The source made the active and inactive calls.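 Rule for the calls: active = visually confirmed hit in the image check and inhibition above 20%; inconclusive = visually confirmed hit but inhibition not above 20%; inactive = no visual hit in the image check.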

# molecule, measured-property, observed-value
measured = [
    ("CCCc1[nH]nc2c1C(c1cccc(OC)c1)C(C#N)=C(N)O2 (stereo unspecified)", "inhibition", "32.3% (inactive)"),
]

What inhibition value was documented for this molecule, `COc1ccc(/C=C/C2=NC(=C\N(C)C)/C(=O)O2)cc1` ?
-26.3% (inactive)

Try this molecule too: `COC(=O)CN(c1cc(OC)ccc1OC)S(=O)(=O)c1ccc(OC)c(OC)c1`
-37.1% (inactive)

Try this molecule too: `COc1ccc2c(c1)c(CC(=O)OCC(=O)O)c(C)n2C(=O)c1ccc(Cl)cc1`
-34.9% (inactive)

Try this molecule too: CCCc1[nH]nc2c1C(c1c(C)nn(-c3ccccc3)c1Cl)C(C#N)=C(N)O2 (stereo unspecified)
-234% (inactive)

Try this molecule too: `Cn1c(=O)c2c(nc(NCc3ccc4c(c3)OCO4)n2Cc2ccc(F)cc2)n(C)c1=O`
-39.4% (inactive)

Try this molecule too: CC1(C)CC(NC(=O)C23CCC(C)(/C(=N/O)C2)C3(C)C)CC(C)(C)N1 (stereo unspecified)
-45.2% (inactive)

Try this molecule too: `CCOC(=O)CC(=O)CSc1[nH]c(=O)cc(C)c1C#N`
28.4% (inactive)

Try this molecule too: `Cc1cc(=O)oc(C)c1C(=O)Nc1cccc2nonc12`
-61.8% (inactive)

Try this molecule too: CCCCOc1ccc(C(=O)OC2CC(C)N(C)CC2C)cc1 (stereo unspecified)
-186% (inactive)

Try this molecule too: CC(C)NCC(O)COc1ccc(CCOCC2CC2)cc1 (stereo unspecified)
-146% (inactive)

Try this molecule too: `CCC(=O)Oc1ccc(/C(CC)=C(\CC)c2ccc(OC(=O)CC)cc2)cc1`
-13.5% (inactive)

Try this molecule too: N#C/C(C(=O)N1CCOCC1)=C1/SC(Cc2ccccc2)C(=O)N1c1ccccc1 (stereo unspecified)
3.5% (inactive)

Try this molecule too: `COc1cccc(Cn2c(NCC(C)C)nc3c2c(=O)n(C)c(=O)n3C)c1`
-77.7% (inactive)

Try this molecule too: `Cn1c(=O)c2c(nc(N3CCN(Cc4ccccc4)CC3)n2CC(=O)c2ccccc2)n(C)c1=O`
-198% (inactive)

Try this molecule too: COc1cccc(C2=CC(c3ccccc3)n3nnnc3N2)c1 (stereo unspecified)
-12.1% (inactive)

Try this molecule too: COc1ccccc1C1/C(=C(/O)c2ccc(C)cc2)C(=O)C(=O)N1Cc1ccco1 (stereo unspecified)
6.3% (inactive)

====

test: DUSP6 inhibitors restoring Erk phosphorylation by chemical complementation, primary imaging in DUSP6-transfected HeLa (AID 609); conditions: HeLa MKP-3 transfected, phospho-Erk imaging KS statistic; measured here: cell density z-score; at 10 µM; cells stimulated with TPA for 15 min
Just so you know, the groups by z-score go like this: class A = under -0.4, class B = from -0.4 up to 0.7, class C = 0.7 and over

For orientation, consider the following solved cases.
# compound, assigned-category
rows = [
    ("Cc1nnc2n(-c3ccccc3)c(=O)c3c4c(sc3n12)COC(C(C)C)C4 (stereo not given)", "class A"),
    ("CCOC(=O)CC(=O)CSc1nc2c(cc1C#N)CCCCC2", "class B"),
    ("COc1ccc(C2CC(C(F)(F)F)n3ncc(C(=O)Nc4cccc(O)c4)c3N2)cc1OC (stereo not given)", "class B"),
    ("CCOc1ccc(/C(O)=C2/C(=O)C(=O)N(c3nc(C)c(C)s3)C2c2ccco2)cc1 (stereo not given)", "class A"),
    ("COCc1[nH]nc2c1C(c1ccccc1OC)C(C#N)=C(N)O2 (stereo not given)", "class B"),
    ("CC(O)Cn1ccccc1=N (stereo not given)", "class B"),
    ("O=C1C=C(O)CC(c2cccs2)C1 (stereo not given)", "class B"),
    ("CC1(C)Cc2c(sc3c2C(=O)N(c2ccccc2)C2=NCCCN23)CO1", "class C"),
]

Kindly identify the class of `O=C(O)c1nsc(Cl)c1Cl` .
class B

====

target: Alpha-2C adrenergic receptor (Homo sapiens); test: modulators of alpha2C/GIRK thallium flux, primary screen, cell-based, HEK293 alpha2C/GIRK1/2 (AID 624); conditions: thallium flux BTC fluorescence, at 10 µM, actives lie on both sides;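 note: slope of fluorescence ratio to pre-addition baseline per second over 15 to 24 s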
measured-property: slope
Response field accepts a number only; no unit should be typed.

Consider the following illustrative entries.
# compound, observed-value
data = [
    ("CSc1nc(N)nc(SCC(=O)OC(C)C)c1C#N", 0.00629),
    ("Clc1ccc2[nH]c3c(NCCN4CCOCC4)ncnc3c2c1", 0.00429),
    ("CN=c1sc2ccccc2n1CC(O)COCc1ccco1 (configuration not stated)", 0.00567),
    ("CC(NCCC(c1ccccc1)c1ccccc1)c1ccccc1 (configuration not stated)", 0.00284),
    ("CC(C)[N+](C)(CCOC(=O)C1c2ccccc2Oc2ccccc21)C(C)C", 0.00524),
    ("CCCCOc1ccccc1/C=c1/sc2nc(-c3oc4ccccc4c3C)nn2c1=O", 0.00462),
    ("CCN(CC)C(=O)c1ccc(O)c(OC)c1", 0.00537),
    ("CSc1nc2sc3c(c2c2nnnn12)CC(C)(C)OC3", 0.00446),
]

What slope value was documented for this compound, `COC(=O)c1ccc(=O)n(Cc2ccco2)c1` ?
0.00511

Try this compound too: `CCOC(=O)Cn1c(SC)nc2sc3c(c2c1=O)CC(C)(C)OC3`
0.00508

Try this compound too: Cc1cc(C)n(CC2CC(=O)N(c3ccc(Cl)c(Cl)c3)C2=O)n1 (configuration not stated)
0.0052

Try this compound too: `Cc1nc2sc3c(c2c(=O)o1)CC(C)(C)OC3`
0.0057

====

assay: DUSP6 inhibitors restoring Erk phosphorylation by chemical complementation, primary imaging in DUSP6-transfected HeLa (AID 609); conditions: HeLa MKP-3 transfected, phospho-Erk imaging KS statistic; measured here: nuclear c-Myc green intensity z-score; at 10 µM; cells stimulated with TPA for 15 min
Label scheme for z-score: lower than 0.5 is n, 0.5 and above is y.

For orientation, consider the following solved cases.
# compound, assigned-category
records = [
    ("Cc1ccc(OCC(=O)NCC(=O)n2nc(C)cc2C)cc1", "n"),
    ("CC(=O)c1c(N)nc2n(c1=O)CCCCC2", "n"),
    ("S=c1[nH]nc(-c2ccccc2)n1Cc1ccccc1", "y"),
    ("O=C(Nc1nc(NC(=O)c2ccco2)n(-c2ccccc2)n1)c1ccccc1", "n"),
    ("Cc1cccc(OCc2nc(C)cc(=O)[nH]2)c1", "n"),
]

Check if z-score >= 0.5 (inclusive). Item: COc1cccc(C2C(C#N)=C(N)Oc3cc(C)[nH]c(=O)c32)c1OC (stereo unspecified)
n

Try this compound too: `COc1cc(-c2nn3c(-c4ccccn4)nnc3s2)cc(OC)c1OC`
n

====

assay: inhibitors of TNFa-induced NFkB p65 translocation, primary screen, imaging, HUVEC, MLSMR starter and 10KST1 sets (AID 438); settings: HUVEC TNFa-induced p65 nuclear translocation; measured here: nuclei count (cytotoxicity indicator), at 2.08 µM;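 note: compound added about 3h40 before a 20 min TNFalpha stimulation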
Label scheme for cell count: lower than 500 is 0 (no), 500 and above is 1 (yes).

For orientation, consider the following solved cases.
# compound, assigned-category
measured = [
    ("CC1(C)Cc2c(sc3ncn4nnnc4c23)CO1", "1 (yes)"),
    ("CC(C)Sc1nc(N2CCCC2)c2c(c1C#N)CC(C)(C)OC2", "1 (yes)"),
]

Check if cell count >= 500 (inclusive). Item: `Cc1csc2nc(CSc3nc4ccccc4o3)cn12`
0 (no)

Try this compound too: CC(=O)Oc1ccccc1C1OC(=O)c2ccccc2N1C(C)=O (configuration not stated)
0 (no)

Try this compound too: `CC(C)CC(=O)Nc1ncnc2c1C(=O)CC(C)(C)C2`
1 (yes)

Try this compound too: CN(C)CC(O)COc1ccc(C(C)(C)c2ccc(OCC(O)CN(C)C)cc2)cc1 (configuration not stated)
0 (no)

Try this compound too: `Fc1cnc(N2CCOCC2)nc1NCc1ccccc1`
1 (yes)

====

assay: inhibitors of E-selectin induction by TNFa, primary screen, imaging, HUVEC, immunofluorescence, MLSMR starter and 10KST1 sets (AID 487); conditions: HUVEC TNFalpha-induced E-selectin immunofluorescence imaging, at 2 µM; stronger effect = higher value;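 note: signal is fraction of cell area covered by stained E-selectin grains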
inhibition values, listed per item
The figure you give is taken to be in %; do not add the unit.

# compound, inhibition (%)
data = [
    ("O=c1c2ccccc2[nH]c(=S)n1CCN1CCC(=C(c2ccc(F)cc2)c2ccc(F)cc2)CC1", -105),
    ("Cc1cc(=O)n2[nH]cnc2n1", -138),
    ("O=S(=O)(c1ccc2ccccc2c1)N(CC(O)CN1CCOCC1)c1ccccc1 (configuration not stated)", -7.5),
]

What inhibition value was documented for this compound, `CCCCOc1ccccc1/C=c1/sc2nc(-c3oc4ccccc4c3C)nn2c1=O` ?
-36.7

Try this compound too: CC1(C2(O)CC(c3ccccc3)ON2)CCCCC1 (configuration not stated)
-10.4

Try this compound too: `COc1ccc(-c2cc(-c3ccccc3)n3ncnc3n2)cc1`
-35.1

Try this compound too: `Oc1ccc(Br)cc1CNn1cnnc1`
-3.9

Try this compound too: `CC(=O)[C@H]1CC[C@H]2[C@@H]3CCC4=CC(=O)CC[C@]4(C)[C@H]3[C@H](O)C[C@]12C`
-156

Try this compound too: `CC(C)CC(=O)Nc1ccccc1N1CCCC1`
-24.3

Try this compound too: `CCCc1cc(C(=O)Cc2ccc(F)cc2)c(O)cc1O`
-180

Try this compound too: `Brc1cccc(-c2cnc3n2CCCCC3)c1`
-58.1

Try this compound too: `C[C@@H]1C[C@H]2[C@@H]3C[C@H](F)C4=CC(=O)C=C[C@]4(C)[C@@]3(F)[C@@H](O)C[C@]2(C)[C@@]1(O)C(=O)COC(=O)C(C)(C)C`
-36.8

Try this compound too: `Cc1ccccc1C(=O)c1ccc2c(c1)n(C)c(=O)n2C`
-296

Try this compound too: `COc1cc(NC(=O)NC(C)(C(F)(F)F)C(F)(F)F)cc(OC)c1OC`
-50

Try this compound too: CC(=O)C1=C(O)C(=O)N(c2cccc(C(=O)O)c2)C1c1ccccc1F (configuration not stated)
-73.9

Try this compound too: `CCOC(=O)c1ccc(-n2c(=O)[nH]c3ccccc3c2=O)cc1`
-140

Try this compound too: `CC(C)(C)NCC(=O)c1c[nH]c2ccccc12`
-49.5

Try this compound too: `Cc1ccc(S(=O)(=O)NC(=O)NCc2ccc3c(c2)OCO3)cc1`
-36.4

Try this compound too: `CCOC(=O)[C@H](CCc1ccccc1)N[C@@H](C)C(=O)N1CCC[C@H]1C(=O)O`
-7.9

Try this compound too: `COc1ccc(C(=O)N2CCC(N3CCN(c4ccccc4)CC3)CC2)cc1OC`
-222

Try this compound too: `O=S(=O)(NCc1cccnc1)c1cccc2nsnc12`
-80.9

Try this compound too: Cn1c(=O)c2c(nc(NCC(O)CO)n2CCc2ccccc2)n(C)c1=O (configuration not stated)
-108

These data points were gathered from PubChem BioAssay.
